target: 20S proteasome; assay: Inhibition of human 20S proteasome using Suc-LLVY-AMC as substrate measured every 5 mins for 120 mins by fluorescence based assay; format: protein-complex assay
Peptide text beside a SMILES is read from it.
QUANTITY_MEASURED: IC50 (nM)
Give a bare numeral; the unit nM is implied.

[
  {
    "COMPOUND": "CC(=O)N[C@@H](Cc1ccc(O)cc1)C(=O)NCC(=O)N[C@@H](CCCNC(=N)N)C(=O)N[C@@H](CCCCN)C(=O)N[C@@H](CCCCN)C(=O)N[C@@H](CCCNC(=N)N)C(=O)N[C@@H](CCCNC(=N)N)C(=O)N[C@@H](CCC(N)=O)C(=O)N[C@@H](CCCNC(=N)N)C(=O)N[C@@H](CCCNC(=N)N)C(=O)N[C@@H](CCCNC(=N)N)C(=O)NCC(=O)NCC(=O)NCC(=O)N[C@@H](CC(C)C)C(=O)N[C@@H](CC(C)C)C(=O)N[C@H](C=O)CC(C)C (Ac-YGRKKRRQRRRGGGLLL-aldehyde)",
    "TARGET_ENTITY": "20S proteasome",
    "IC50 / nM": 2.5
  }
]

Tell me the measured IC50 of CC(=O)N[C@@H](CC(C)C)C(=O)N[C@@H](CC(C)C)C(=O)N[C@H](C=O)CC(C)C (Ac-Leu-Leu-Leu-aldehyde) , please. 136

Next compound up: CC(=O)N[C@@H](Cc1ccc(O)cc1)C(=O)N[C@@H](CC(C)C)C(=O)N[C@@H](Cc1ccccc1)C(=O)N[C@H](C=O)CC(C)C (Ac-YLFL-aldehyde) 6.4
